pIC50: −log10 of the molar value.
Here is a set of compounds with reported pIC50 for Dual specificity protein kinase TTK (Homo sapiens), compiled from the literature.

Examples from the recorded data:
{"MOLECULE": "COc1cc(N2CCCC2=O)ccc1Nc1nc(NC2COC2)c2c(C#N)c[nH]c2n1", "pIC50": "> 7.30"}
{"MOLECULE": "COc1cc(P2(=O)CCN(C(C)=O)CC2)ccc1Nc1cc(C2CC2)c2c(C(F)(F)F)c[nH]c2n1", "pIC50": "6.00 to 6.52"}
{"MOLECULE": "Cc1nsc(Nc2cc(C#N)ccn2)c1C(=O)Nc1ccc(Cl)c(F)c1", "pIC50": "< 4.70"}

Measured pIC50 of CN(C)C(=O)c1ccc(Nc2cc3c(cn2)cc(-c2cnn(C)c2)n3C(=O)OC2CCCC2)c(Cl)c1 : 8.52
